compounds and their reported viability (% of control)
Assay: High-throughput drug toxicity screening in the BPDCN cell line Cal-1 (AID 1224825);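 also: cells exposed to compounds for 48 h; 100% = DMSO and 0% = bortezomib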
Settings: Cal-1 BPDCN cell viability, qHTS; at 45.8 µM (top of the series) unless noted
Could you write the number and then its unit?

Worked cases, viability (% of control) given:
COc1cc(C=CC(=O)O)ccc1O: 96.5%
COc1cc(Nc2nc3ccccc3nc2NS(=O)(=O)c2ccc(NC(=O)c3ccc(C)c(OC)c3)cc2)cc(OC)c1: 78.5%
C[C@@]1(C(=O)Nc2ccc(F)nc2)CCCN1c1nc(Nc2cc(C3CC3)[nH]n2)c2cccn2n1: 17.3%
Cc1ccc(NC(=O)c2ccc(CN3CCN(C)CC3)cc2)cc1Nc1nc(-c2cccnc2)cs1: 6.7%
C[C@@H](N)c1ccc(C(=O)Nc2ccnc3[nH]ccc23)cc1: 12.2%

# viability (% of control) (compound: c1ccc(-c2oc3ncnc(NC[C@@H]4CCCO4)c3c2-c2ccccc2)cc1 ) is 42.1%

# viability (% of control) (compound: CC(=O)Nc1cccc(-n2c(=O)n(C3CC3)c(=O)c3c(Nc4ccc(I)cc4F)n(C)c(=O)c(C)c32)c1 ) is 7.97%

# viability (% of control) (compound: CO[C@H]1O[C@@H]2O[C@@]3(C)CC[C@@H]4[C@@H](C)CC[C@@H]([C@H]1C)[C@@]24OO3 ) is 31.3%
